Numbers sourced from paper PMC11945486.

Below, each entry is listed alongside its reported Max ΔF/F0.
- tested.system: human TAS1R2-WT/TAS1R3-C757R (Homo sapiens, UniProt Q7RTX0+Q8TE23, C757R)
- Construct: expressed in transfected cells; host or cells: HEK293T stably expressing Gα16gust44
- Sequence (Q8TE23 20-839): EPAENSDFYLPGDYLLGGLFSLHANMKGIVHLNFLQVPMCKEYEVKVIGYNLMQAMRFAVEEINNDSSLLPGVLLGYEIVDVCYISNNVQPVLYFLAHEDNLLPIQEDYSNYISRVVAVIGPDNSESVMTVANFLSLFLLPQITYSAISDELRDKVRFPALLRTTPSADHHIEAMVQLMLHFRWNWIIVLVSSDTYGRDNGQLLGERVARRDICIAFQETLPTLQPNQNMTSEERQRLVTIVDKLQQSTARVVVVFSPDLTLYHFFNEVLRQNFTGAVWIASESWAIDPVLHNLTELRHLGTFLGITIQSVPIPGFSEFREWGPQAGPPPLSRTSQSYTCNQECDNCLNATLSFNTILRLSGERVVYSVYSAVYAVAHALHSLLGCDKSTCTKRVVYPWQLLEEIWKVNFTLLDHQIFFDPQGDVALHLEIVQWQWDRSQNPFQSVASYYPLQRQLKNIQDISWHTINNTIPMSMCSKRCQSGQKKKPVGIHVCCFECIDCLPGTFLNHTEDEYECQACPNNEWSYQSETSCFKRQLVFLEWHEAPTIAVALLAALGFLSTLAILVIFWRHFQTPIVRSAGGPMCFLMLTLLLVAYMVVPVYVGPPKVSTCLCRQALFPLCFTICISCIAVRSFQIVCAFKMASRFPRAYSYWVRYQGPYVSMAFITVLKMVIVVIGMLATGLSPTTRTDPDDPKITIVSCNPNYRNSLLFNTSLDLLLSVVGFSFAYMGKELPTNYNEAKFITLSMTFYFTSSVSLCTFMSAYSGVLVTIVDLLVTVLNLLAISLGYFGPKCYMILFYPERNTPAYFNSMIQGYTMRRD
- Sequence (Q7RTX0 21-852 C757R): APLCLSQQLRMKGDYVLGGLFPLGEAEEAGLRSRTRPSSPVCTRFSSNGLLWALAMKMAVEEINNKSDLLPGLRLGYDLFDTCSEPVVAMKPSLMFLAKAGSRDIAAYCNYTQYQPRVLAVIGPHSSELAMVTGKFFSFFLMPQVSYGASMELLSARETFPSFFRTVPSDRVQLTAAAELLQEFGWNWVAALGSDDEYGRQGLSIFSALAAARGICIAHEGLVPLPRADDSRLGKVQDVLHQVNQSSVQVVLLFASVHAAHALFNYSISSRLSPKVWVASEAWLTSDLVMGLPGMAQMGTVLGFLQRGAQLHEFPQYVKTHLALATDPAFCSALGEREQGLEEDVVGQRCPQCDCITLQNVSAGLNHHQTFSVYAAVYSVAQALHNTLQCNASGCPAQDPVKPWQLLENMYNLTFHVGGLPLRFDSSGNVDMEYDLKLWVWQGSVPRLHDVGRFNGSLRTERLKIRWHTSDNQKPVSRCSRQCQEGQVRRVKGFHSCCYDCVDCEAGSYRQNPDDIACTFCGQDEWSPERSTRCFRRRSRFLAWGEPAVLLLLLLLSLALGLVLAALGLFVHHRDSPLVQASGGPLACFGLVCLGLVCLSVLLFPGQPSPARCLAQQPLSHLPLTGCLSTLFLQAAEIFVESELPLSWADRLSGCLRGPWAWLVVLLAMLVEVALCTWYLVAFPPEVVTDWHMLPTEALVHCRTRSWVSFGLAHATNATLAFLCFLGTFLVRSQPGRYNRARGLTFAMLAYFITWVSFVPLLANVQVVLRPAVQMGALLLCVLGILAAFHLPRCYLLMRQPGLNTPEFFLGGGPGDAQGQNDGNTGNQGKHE
- assay.remarks: Calcium mobilisation assay, TAS1R2-WT with TAS1R3 variant C757R
- Format: cell-based
- condition.parameters: maximal signal amplitude

Read off the recorded Max ΔF/F0 for C[C@H](CC[C@@H](O[C@@H]1O[C@H](CO[C@@H]2O[C@H](CO)[C@@H](O)[C@H](O)[C@H]2O)[C@@H](O)[C@H](O)[C@H]1O[C@@H]1O[C@H](CO)[C@@H](O)[C@H](O)[C@H]1O)C(C)(C)O)[C@H]1CC[C@@]2(C)[C@@H]3CC=C4[C@@H](CC[C@H](O[C@@H]5O[C@H](CO[C@@H]6O[C@H](CO)[C@@H](O)[C@H](O)[C@H]6O)[C@@H](O)[C@H](O)[C@H]5O)C4(C)C)[C@]3(C)[C@H](O)C[C@]12C [Mogroside V, mogroside V]
1.03 ± 0.02

Read off the recorded Max ΔF/F0 for COC(=O)[C@H](Cc1ccccc1)NC(=O)[C@H](CC(=O)O)NCCC(C)(C)C
0.75 ± 0.03

Read off the recorded Max ΔF/F0 for CC1=CC(=O)NS(=O)(=O)O1
0.42 ± 0.01
